Just for reference, patent US6887712B1 is where these values come from.

biological target: specific epitope on apoB-100 of LDL (Homo sapiens, UniProt P04114); construct: from tissue; host or cells: LDL particles (plasma lipoprotein); experiment: Immunoreactivity cell-free sandwich ELISA: binding of LDL to capture anti-apoB monoclonal antibody; conditions: immunoreactivity cell-free assay of Example 3, yes/no
Sequence (P04114 28-4563): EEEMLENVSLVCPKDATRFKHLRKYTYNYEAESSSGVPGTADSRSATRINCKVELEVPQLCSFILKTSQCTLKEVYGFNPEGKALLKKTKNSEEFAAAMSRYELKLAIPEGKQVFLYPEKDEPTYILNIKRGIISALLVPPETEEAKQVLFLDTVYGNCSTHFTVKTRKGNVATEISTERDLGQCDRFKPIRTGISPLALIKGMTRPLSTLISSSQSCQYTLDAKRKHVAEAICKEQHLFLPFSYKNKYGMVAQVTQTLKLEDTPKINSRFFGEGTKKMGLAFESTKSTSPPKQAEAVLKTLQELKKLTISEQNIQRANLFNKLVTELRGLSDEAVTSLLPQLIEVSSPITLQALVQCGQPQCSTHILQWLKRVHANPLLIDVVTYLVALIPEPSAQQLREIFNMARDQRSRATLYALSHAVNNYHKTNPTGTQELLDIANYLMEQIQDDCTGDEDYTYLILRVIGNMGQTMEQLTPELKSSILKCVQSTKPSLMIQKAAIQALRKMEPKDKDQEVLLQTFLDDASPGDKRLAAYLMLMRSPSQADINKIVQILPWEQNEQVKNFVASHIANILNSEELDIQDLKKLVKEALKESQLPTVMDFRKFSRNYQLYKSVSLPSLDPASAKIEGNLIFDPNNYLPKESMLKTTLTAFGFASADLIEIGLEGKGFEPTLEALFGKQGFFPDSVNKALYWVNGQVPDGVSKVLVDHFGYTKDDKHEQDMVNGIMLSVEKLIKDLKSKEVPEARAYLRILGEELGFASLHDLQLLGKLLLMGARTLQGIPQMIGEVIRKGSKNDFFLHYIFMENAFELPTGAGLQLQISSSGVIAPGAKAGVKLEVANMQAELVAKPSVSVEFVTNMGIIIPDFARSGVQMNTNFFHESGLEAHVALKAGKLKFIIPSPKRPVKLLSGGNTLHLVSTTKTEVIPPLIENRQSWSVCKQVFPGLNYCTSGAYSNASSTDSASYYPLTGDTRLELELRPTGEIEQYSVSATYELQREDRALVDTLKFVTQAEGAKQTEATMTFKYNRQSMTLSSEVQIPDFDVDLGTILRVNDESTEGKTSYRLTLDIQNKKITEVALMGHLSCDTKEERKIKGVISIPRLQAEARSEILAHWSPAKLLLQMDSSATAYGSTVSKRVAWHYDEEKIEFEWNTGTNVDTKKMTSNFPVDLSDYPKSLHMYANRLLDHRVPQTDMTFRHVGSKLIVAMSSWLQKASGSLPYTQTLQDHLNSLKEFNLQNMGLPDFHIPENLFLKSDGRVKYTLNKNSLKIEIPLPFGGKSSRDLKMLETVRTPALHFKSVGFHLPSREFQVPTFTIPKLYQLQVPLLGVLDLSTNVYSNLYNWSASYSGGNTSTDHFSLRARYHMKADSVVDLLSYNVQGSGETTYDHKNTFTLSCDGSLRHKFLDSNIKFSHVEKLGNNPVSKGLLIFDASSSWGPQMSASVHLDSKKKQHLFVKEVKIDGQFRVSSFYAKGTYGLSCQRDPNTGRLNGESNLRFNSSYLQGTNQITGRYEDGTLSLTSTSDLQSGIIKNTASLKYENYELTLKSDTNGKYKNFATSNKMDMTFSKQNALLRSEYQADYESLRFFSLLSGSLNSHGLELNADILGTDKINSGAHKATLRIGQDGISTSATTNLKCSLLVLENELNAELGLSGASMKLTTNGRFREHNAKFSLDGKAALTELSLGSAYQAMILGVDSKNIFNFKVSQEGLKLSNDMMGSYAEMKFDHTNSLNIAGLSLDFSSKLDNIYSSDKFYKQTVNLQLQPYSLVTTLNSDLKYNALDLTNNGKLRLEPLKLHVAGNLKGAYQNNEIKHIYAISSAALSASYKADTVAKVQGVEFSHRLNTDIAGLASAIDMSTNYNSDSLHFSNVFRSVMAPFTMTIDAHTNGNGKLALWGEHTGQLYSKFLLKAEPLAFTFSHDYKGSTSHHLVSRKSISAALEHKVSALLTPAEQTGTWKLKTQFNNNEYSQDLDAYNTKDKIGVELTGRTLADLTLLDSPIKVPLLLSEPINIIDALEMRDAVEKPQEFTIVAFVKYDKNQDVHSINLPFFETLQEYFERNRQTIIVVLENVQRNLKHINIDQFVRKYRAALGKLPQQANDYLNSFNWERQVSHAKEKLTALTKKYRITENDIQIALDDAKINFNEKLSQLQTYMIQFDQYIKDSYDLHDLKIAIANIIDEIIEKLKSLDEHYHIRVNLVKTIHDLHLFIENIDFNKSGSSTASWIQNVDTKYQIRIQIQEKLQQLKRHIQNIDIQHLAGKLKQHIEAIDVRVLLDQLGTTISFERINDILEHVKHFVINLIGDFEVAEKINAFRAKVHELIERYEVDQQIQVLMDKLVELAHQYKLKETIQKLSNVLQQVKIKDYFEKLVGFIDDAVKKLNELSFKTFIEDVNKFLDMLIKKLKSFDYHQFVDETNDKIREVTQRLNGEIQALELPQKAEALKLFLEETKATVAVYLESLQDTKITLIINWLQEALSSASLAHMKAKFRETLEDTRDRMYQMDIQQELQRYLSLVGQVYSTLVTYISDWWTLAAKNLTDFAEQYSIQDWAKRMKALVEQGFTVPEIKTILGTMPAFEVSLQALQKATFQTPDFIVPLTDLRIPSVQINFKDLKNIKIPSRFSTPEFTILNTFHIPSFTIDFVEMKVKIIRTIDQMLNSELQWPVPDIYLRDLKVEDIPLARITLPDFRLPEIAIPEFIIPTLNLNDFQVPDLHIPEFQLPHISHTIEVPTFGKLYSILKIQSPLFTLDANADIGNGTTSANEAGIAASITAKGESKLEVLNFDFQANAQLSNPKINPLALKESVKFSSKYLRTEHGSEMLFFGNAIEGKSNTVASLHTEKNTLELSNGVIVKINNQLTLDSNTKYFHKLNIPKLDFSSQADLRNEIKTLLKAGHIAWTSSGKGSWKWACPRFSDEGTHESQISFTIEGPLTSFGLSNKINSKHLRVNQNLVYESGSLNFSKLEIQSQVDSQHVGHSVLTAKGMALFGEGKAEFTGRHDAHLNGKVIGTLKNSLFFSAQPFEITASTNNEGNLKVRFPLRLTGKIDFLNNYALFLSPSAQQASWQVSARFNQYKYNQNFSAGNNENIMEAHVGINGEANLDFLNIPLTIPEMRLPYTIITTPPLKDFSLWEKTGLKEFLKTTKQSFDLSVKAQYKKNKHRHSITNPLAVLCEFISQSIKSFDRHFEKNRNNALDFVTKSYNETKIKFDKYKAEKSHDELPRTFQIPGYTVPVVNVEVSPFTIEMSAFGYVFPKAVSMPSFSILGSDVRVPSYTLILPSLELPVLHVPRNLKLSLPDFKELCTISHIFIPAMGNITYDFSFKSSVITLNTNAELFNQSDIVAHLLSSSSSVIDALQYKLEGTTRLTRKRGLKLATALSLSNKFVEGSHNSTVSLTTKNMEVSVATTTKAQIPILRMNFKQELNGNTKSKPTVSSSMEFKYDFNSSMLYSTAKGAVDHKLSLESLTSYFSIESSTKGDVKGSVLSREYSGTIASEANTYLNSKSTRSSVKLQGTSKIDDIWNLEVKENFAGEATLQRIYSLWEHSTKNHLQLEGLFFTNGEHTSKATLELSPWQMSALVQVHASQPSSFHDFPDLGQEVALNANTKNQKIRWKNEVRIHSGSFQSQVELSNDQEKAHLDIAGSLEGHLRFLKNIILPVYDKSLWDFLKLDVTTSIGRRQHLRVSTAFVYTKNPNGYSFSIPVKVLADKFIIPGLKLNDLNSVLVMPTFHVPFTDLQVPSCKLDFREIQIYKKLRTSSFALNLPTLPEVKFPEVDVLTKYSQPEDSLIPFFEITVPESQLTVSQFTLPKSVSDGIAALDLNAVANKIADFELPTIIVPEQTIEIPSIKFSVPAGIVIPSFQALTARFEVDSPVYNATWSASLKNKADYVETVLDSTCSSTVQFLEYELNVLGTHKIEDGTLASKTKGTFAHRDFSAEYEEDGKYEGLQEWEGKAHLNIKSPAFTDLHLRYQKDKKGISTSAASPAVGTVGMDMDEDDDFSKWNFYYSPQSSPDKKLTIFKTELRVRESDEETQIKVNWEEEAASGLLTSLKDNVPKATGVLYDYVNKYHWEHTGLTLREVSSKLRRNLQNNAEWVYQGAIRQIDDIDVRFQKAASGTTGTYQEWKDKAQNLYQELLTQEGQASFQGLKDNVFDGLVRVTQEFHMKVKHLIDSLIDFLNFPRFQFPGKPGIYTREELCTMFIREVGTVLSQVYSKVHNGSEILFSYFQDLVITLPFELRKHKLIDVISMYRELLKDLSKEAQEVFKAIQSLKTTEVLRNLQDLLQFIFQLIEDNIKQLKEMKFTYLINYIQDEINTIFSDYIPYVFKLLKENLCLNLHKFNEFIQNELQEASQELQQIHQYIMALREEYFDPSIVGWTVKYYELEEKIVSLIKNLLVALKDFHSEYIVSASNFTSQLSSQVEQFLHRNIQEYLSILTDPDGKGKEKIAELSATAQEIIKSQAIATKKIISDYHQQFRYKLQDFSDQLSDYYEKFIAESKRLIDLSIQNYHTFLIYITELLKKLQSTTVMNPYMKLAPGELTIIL
measured property: Cell-Free Assay

> print(dat)
                                   compound                         target.under.test  result
1  CC(C)(Sc1cc(C(C)(C)C)c(O)c(C(C)(C)C)c1)Sc1cc(C(C)(C)C)c(OC(=O)CCCC(=O)O)c(C(C)(C)C)c1  specific epitope on apoB-100 of LDL (Homo sapiens, UniProt P04114)     yes
2  CN(C)C(=O)c1ccc(CSc2cc(C(C)(C)C)c(O)c(C(C)(C)C)c2)cc1  specific epitope on apoB-100 of LDL (Homo sapiens, UniProt P04114)      no
3  CC(C)(C)c1cc(SCC(=O)c2ccc([N+](=O)[O-])cc2)cc(C(C)(C)C)c1O  specific epitope on apoB-100 of LDL (Homo sapiens, UniProt P04114)      no
4  CC(C)(C)c1cc(SCc2ccc(F)cc2)cc(C(C)(C)C)c1O  specific epitope on apoB-100 of LDL (Homo sapiens, UniProt P04114)      no
5  CC(C)(C)c1cc(SCc2cccc(OC(F)(F)F)c2)cc(C(C)(C)C)c1O  specific epitope on apoB-100 of LDL (Homo sapiens, UniProt P04114)      no
6  CC(C)(C)c1cc(SCc2ccc([N+](=O)[O-])cc2[N+](=O)[O-])cc(C(C)(C)C)c1O  specific epitope on apoB-100 of LDL (Homo sapiens, UniProt P04114)      no
7  CN(C)C(=O)Cc1ccc(CSc2cc(C(C)(C)C)c(O)c(C(C)(C)C)c2)cc1  specific epitope on apoB-100 of LDL (Homo sapiens, UniProt P04114)     yes
8  CC(C)(Sc1cc(C(C)(C)C)c(O)c(C(C)(C)C)c1)Sc1cc(C(C)(C)C)c(OCC(O)C(O)C(O)C(O)CO)c(C(C)(C)C)c1 (centres unmarked)  specific epitope on apoB-100 of LDL (Homo sapiens, UniProt P04114)     yes

The compound listed as CC(C)(Sc1cc(C(C)(C)C)c(O)c(C(C)(C)C)c1)Sc1cc(C(C)(C)C)c(OC(=O)CCC(=O)O)c(C(C)(C)C)c1 [MSE] shows Cell-Free Assay equal to yes

Looking up `CC(C)(C)c1cc(SCc2ccc(CCO)cc2)cc(C(C)(C)C)c1O` , I found its Cell-Free Assay recorded as yes

Looking up `CC(C)(C)c1cc(SCc2ccc(C(F)(F)F)cc2)cc(C(C)(C)C)c1O` , I found its Cell-Free Assay recorded as yes
